Taken from patent US9962369B2.

- TEST_DESCRIPTION: Transdermal delivery of melatonin: plasma level of melatonin after applying composition to skin of a subject
- EXPERIMENTAL_PARAMETERS: human, plasma, topical, Plasma level of melatonin, Proline isopropyl ester hydrochloride 361.41 mM, 0.60 mL applied to skin, 1 hr after transdermal administration
ASSAY_READOUT: concentration at 1 h (ng/mL)

structure_smiles_string=COc1ccc2[nH]cc(CCNC(C)=O)c2c1 number=1.4

* * *

- Test system: human skin tissue
- TEST_DESCRIPTION: Penetration rate of AI compound in AI-helper composition through human skin in vitro, modified Franz cells
- Format: in vitro ADME
- EXPERIMENTAL_PARAMETERS: with D-tryptophan isopropyl ester hydrochloride 6 % w/v in water; AI compound 0.5 % w/v; 25 °C
- Protocol: Penetration rate of AI compound in the AI-helper composition through human skin were measured in vitro by modified Franz cells. A Franz cell had two chambers: the top sample chamber and the bottom receiving chamber. The human skin tissue (450-500 μm thick) that separated the top and the receiving chambers was isolated from the anterior or posterior thigh areas.
ASSAY_READOUT: Skin penetration rate of AI compound

compound=CC1=C(/C=C/C(C)=C/C=C/C(C)=C/C=C/C=C(C)/C=C/C=C(C)/C=C/C2=C(C)CCCC2(C)C)C(C)(C)CCC1 result="11.598 ± 2.173 μg/cm^2/h"
compound=Cc1ncc(CO)c(CO)c1O.Cl result="17.131 ± 2.332 μg/cm^2/h"
compound=O=C1O[C@H]([C@@H](O)CO)C(O)=C1O result="11.136 ± 2.385 μg/cm^2/h"
compound=N[C@@H](CCC(=O)N[C@@H](CS)C(=O)NCC(=O)O)C(=O)O result="18.126 ± 3.451 μg/cm^2/h"
compound="O=C(O)CCCCC1CCSS1 (centres unmarked)" result="35.456 ± 2.476 μg/cm^2/h"
compound=Oc1ccc(C=Cc2cc(O)cc(O)c2)cc1 result="20.728 ± 3.962 μg/cm^2/h"
compound=Nc1nc2ncc(CNc3ccc(C(=O)N[C@@H](CCC(=O)O)C(=O)O)cc3)nc2c(=O)[nH]1 result="6.725 ± 3.327 μg/cm^2/h"
compound=NCCS(=O)(=O)O result="9.131 ± 2.321 μg/cm^2/h"
